Reference source for all entries: ChEMBL document CHEMBL4513216

system: Plasmodium berghei; experiment: Screen against P. berghei liver stage (PbLuc), transformed with Luciferase, at 10uM; assay type: functional, HepG2; conditions: tested at 10 uM
The campaign covered roughly 69,000 compounds. About 8,600 (12%) showed an effect of 50% or more. This is one part of a sample in which strong results are shown more often than they occur.
Property: INHIBITION; scope: individual compounds
Could you give me the number in %? Just the number is fine.

compound	target_of_assay	unit_info	INHIBITION
Nc1c(N2CCCCC2)ncnc1N1CCOCC1	Plasmodium berghei	%	10.5
Cc1cnccc1-c1cnn(CCNC(=O)c2ccncc2)c1C1CC1	Plasmodium berghei	%	48
c1cc(CN2C[C@@H]3OCCN(CCN4CCCC4)[C@@H]3C2)co1	Plasmodium berghei	%	15.7
COCC1(CNC(=O)Nc2cc(F)ccc2OC)CCCC1	Plasmodium berghei	%	51.4
Fc1cnc(N2CCCC3(COCCN(c4nccs4)C3)C2)nc1 (stereo not given)	Plasmodium berghei	%	29.4

The observed INHIBITION for CC(NC(=O)c1cc(=O)n(C)c(=O)n1C)c1ccccc1-n1cccn1 (stereo not given) when tested with Plasmodium berghei stands at 0.426

The observed INHIBITION for CC(NC(=O)N1CCCN(C)CC1)c1ccc(S(N)(=O)=O)cc1 (stereo not given) when tested with Plasmodium berghei stands at -5.22

The observed INHIBITION for CN1CCO[C@@H]2CN(S(=O)(=O)c3ccc(F)cc3)CC[C@@H]2C1 when tested with Plasmodium berghei stands at 16.9

The observed INHIBITION for Nc1c(N2CCCC2)ncnc1N1CCOCC1 when tested with Plasmodium berghei stands at 7.53

The observed INHIBITION for CCN1C[C@H]2C3(CCN(C(C)=O)CC3)CC[C@@]2(C(=O)N(C)C)C1 when tested with Plasmodium berghei stands at 36.7

###

test system: Plasmodium berghei; assay: Screen against P. berghei liver stage (PbLuc), transformed with Luciferase, at 10uM; type: functional, HepG2; conditions: tested at 10 uM
About 8,600 (12%) of roughly 69,000 compounds showed an effect of 50% or more. The sample holds strong results, similar compounds and a random draw of the others, so the mix is not that of the screen.
# cutoff 20% applies to INHIBITION; >= gives rule met, < gives rule not met

Here's what some known entries look like.
molecule	assigned_label
Cc1nonc1OCCNC(=O)COc1ccc(Cl)cc1Cl	rule not met
Cc1nonc1OCCNC(=O)COc1ccc(F)cc1F	rule not met
Cc1cccc(NCc2nn(C)c(=O)[nH]2)c1	rule met
Cc1cccc(-c2nc(C)nn2CC(=O)NC(C)C)c1	rule met
CCN(CC)S(=O)(=O)c1ccc2c(c1)N(Cc1ccccn1)C(=O)CS2	rule not met

Prompt: Say whether CNC(=O)N1C[C@@H]2C[C@H](C(=O)Nc3ccccc3)[C@H](C1)O2 shows INHIBITION of 20% or more.
Completion: rule met

Prompt: Say whether CCC1(CC)CC(=O)N(CC(O)c2ccc(F)cc2)C1=O (stereo not drawn) shows INHIBITION of 20% or more.
Completion: rule not met

Prompt: Say whether CN1C[C@@H]2C[C@H](C(=O)Nc3cccnc3)[C@H](C1)O2 shows INHIBITION of 20% or more.
Completion: rule met

Prompt: Say whether O=C(c1ccnnc1)N1CCC2(CC1)CCN(C(=O)c1cccnc1)C2 shows INHIBITION of 20% or more.
Completion: rule not met

Prompt: Say whether O=C(CO)N1CCC(F)(F)C2(CCN(c3ccccc3)C2)C1 (stereo not drawn) shows INHIBITION of 20% or more.
Completion: rule met

Prompt: Say whether O=C(Nc1cccnc1)[C@H]1C[C@H]2CN(C(=O)NC3CCCC3)C[C@@H]1O2 shows INHIBITION of 20% or more.
Completion: rule not met

Prompt: Say whether CSc1nsc(NC(=O)N2CCc3ccccc3C2)n1 shows INHIBITION of 20% or more.
Completion: rule not met

Prompt: Say whether CC(C)COc1ccccc1C(N)CC(C)C (stereo not drawn) shows INHIBITION of 20% or more.
Completion: rule met

###

tested on: Plasmodium berghei; experiment: Screen against P. berghei liver stage (PbLuc), transformed with Luciferase, at 10uM; type: functional, HepG2; settings: tested at 10 uM
Hit rate of the full screen: of about 69,000 compounds, about 8,600 (12%) showed an effect of 50% or more. The list comes from a sample in which strong results are over-represented; it also holds close analogues and randomly drawn compounds.
Property: INHIBITION; scope: individual compounds

compound	target_of_assay	INHIBITION
CO[C@H]1CCN(Cc2cccs2)[C@@H]2CN(Cc3ccncc3)C[C@H]12	Plasmodium berghei	61.3%
COCCN1CC[C@H](OC)[C@@H]1Cc1ccccc1	Plasmodium berghei	10%
COC1CCN(C(=O)c2cc(-c3ccc(Cl)cc3)on2)CC1	Plasmodium berghei	-55.6%
O=C(c1cn(-c2ccccc2Cl)nn1)N1CCSCC1	Plasmodium berghei	-28.8%
O=C(c1ccsc1)N1C[C@@H]2C[C@@H](c3nnc(C4CC4)o3)O[C@@H]2C1	Plasmodium berghei	-31.6%

For this compound ( CC(C)c1nn(C)c(Cl)c1CNCc1cccnc1N(C)C ), measured INHIBITION is 57.5%

For this compound ( CCOc1ccc(CNCc2cccnc2N(C)C)cc1 ), measured INHIBITION is 39.7%

For this compound ( N#Cc1cccc(CN2C(=O)c3ccccc3CS2(=O)=O)c1 ), measured INHIBITION is -0.85%

For this compound ( COc1ccc(S(=O)(=O)NCc2cccnc2N(C)C)cc1 ), measured INHIBITION is 21.5%

For this compound ( Cn1cnnc1C1CCCN(C(=O)c2cc(C3CC3)on2)C1 (stereo not given) ), measured INHIBITION is 5.15%

###

system: Plasmodium berghei; test: Screen against P. berghei liver stage (PbLuc), transformed with Luciferase, at 10uM; format: functional, HepG2; conditions: tested at 10 uM
In all, about 69,000 compounds went through this assay and about 8,600 (12%) showed an effect of 50% or more. The sample as a whole holds a higher share of strong results than the screen did.
metric: INHIBITION (%)
Could you give me the number in %? Just the number is fine.

compound	unit_info	data_value
CCc1cc(N2CCC(NCCc3nc(C)c(C)s3)CC2)nc(C)n1	%	30.3
Cc1cc(CNc2ccc(C(F)(F)F)cc2)no1	%	30.4

As a next step, examine the compound that follows.
For this compound ( CC(C)(C)Oc1ccccc1CNC(=O)C1CCCOC1 (stereo not drawn) ), measured INHIBITION is 29.8

###

system: Plasmodium berghei; assay: Screen against P. berghei liver stage (PbLuc), transformed with Luciferase, at 10uM; type: functional, HepG2; conditions: tested at 10 uM
Screen size: about 69,000 compounds; about 8,600 (12%) showed an effect of 50% or more. The entries come from a sample that favours strong results as a whole.
Property: INHIBITION; scope: individual compounds
Could you give me the number in %? Just the number is fine.

Here's what some known entries look like.
compound	target_of_assay	metric	data_value
Fc1ccc([C@@H]2COC[C@H]2NCc2cccc(F)c2)cc1	Plasmodium berghei	INHIBITION	20.2
CNC(=O)c1sccc1S(=O)(=O)Nc1ccc(C)cc1	Plasmodium berghei	INHIBITION	61.1
NC1CCC(n2cc(C(=O)N[C@H]3CCCc4ccccc43)nn2)CC1 (some centres not stated)	Plasmodium berghei	INHIBITION	16.6
COC(=O)c1sccc1S(=O)(=O)N1CCC(Oc2cnccn2)CC1	Plasmodium berghei	INHIBITION	53.7

For this compound ( Cc1cccn2c(=O)cc(OC(=O)c3ccccc3)nc12 ), measured INHIBITION is -19.7

For this compound ( CNS(=O)(=O)c1ccsc1C(=O)OC ), measured INHIBITION is 37.6

For this compound ( Cc1ccc(C(=O)Oc2cc(=O)n3cccc(C)c3n2)cc1 ), measured INHIBITION is 59.8

For this compound ( CC(C)c1nn(C)c(N(C)C)c1CNCc1ccc(CO)c(F)c1 ), measured INHIBITION is 23.7

For this compound ( O=C(COCC(F)(F)F)N1CCCC(n2cccn2)C1 (configuration not stated) ), measured INHIBITION is 39.5

###

Property: INHIBITION; scope: individual compounds
tested on: Plasmodium berghei; assay: Screen against P. berghei liver stage (PbLuc), transformed with Luciferase, at 10uM; format: functional, HepG2; details: tested at 10 uM
Among all 69,000 compounds or so, about 8,600 (12%) showed an effect of 50% or more. Shown is part of a subset that was picked to be rich in strong results.
Remember to quote the unit after the number.

Here's what some known entries look like.
compound	INHIBITION
CCNc1nnc(SCC(=O)N2CCN(Cc3ccc(Cl)s3)CC2)s1	40.5%
CCOc1cccc(CNc2cnn(CC(C)C)c2CC)c1	39.5%

As a next step, examine the compound that follows.
For this compound ( COCCOc1cccc(C(=O)N2CCCC(n3cccn3)C2)c1 (stereo not drawn) ), measured INHIBITION is 9.94%
